Reference for the values: patent US4521422A

System: Brain-Specific Receptors of Rats
Test details: Inhibition of the binding of 3H-benzodiazepine to brain-specific receptors of rats
Parameters: species or system rat (Wistar)
Study conditions: 3H-diazepam 1.5 nM or 3H-flunitrazepam 1.0 nM; rat cortex P2 fraction; test concentration not given
Quantity measured: % Inhibition (%)

1) O=C(c1ccc(F)cc1)c1cnn2c(-c3ccc(F)cc3)ccnc12; 34
2) Cc1cccc(C(=O)c2cnn3c(-c4cccnc4)ccnc23)c1; 70
3) Cc1cccc(C(=O)c2cnn3c(-c4cccc(C)c4)ccnc23)c1; 75
4) O=C(c1ccc(F)cc1)c1cnn2c(-c3ccccn3)ccnc12; 17
5) Cc1nn2c(-c3cccc(C(F)(F)F)c3)ccnc2c1C(=O)c1ccccc1; 54
6) O=C(c1ccccc1)c1cnn2c(-c3cccc(F)c3)ccnc12; 88
